target: Tyrosyl-tRNA synthetase, putative (Trypanosoma cruzi (strain CL Brener)) (UniProt Q4DSP6); test: Trypanosoma cruzi tyrosyl tRNA synthetase (TcYRS) SOP; format: functional; set-up: scale not given: direction of the effect not stated beside the values; settings: 30 µM
Sequence (Q4DSP6 as listed by the source): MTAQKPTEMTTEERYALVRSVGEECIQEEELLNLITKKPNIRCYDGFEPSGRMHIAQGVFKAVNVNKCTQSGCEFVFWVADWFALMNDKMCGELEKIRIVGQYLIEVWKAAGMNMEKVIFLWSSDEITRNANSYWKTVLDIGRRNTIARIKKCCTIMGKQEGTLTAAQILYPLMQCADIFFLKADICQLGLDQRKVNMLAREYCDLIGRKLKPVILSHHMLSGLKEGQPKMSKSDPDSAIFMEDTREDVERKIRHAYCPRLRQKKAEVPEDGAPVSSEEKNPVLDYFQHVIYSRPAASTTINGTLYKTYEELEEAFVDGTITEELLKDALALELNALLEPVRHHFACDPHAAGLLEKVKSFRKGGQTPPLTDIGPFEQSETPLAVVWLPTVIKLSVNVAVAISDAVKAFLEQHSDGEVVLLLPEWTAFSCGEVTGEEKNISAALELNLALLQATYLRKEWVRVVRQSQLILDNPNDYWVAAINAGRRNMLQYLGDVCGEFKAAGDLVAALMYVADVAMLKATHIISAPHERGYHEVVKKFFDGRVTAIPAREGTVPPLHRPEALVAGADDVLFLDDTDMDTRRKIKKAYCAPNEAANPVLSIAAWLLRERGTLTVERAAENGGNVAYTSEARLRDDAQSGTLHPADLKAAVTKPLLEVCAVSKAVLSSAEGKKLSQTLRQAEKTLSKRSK
measured_parameter: Percent Effect (%)
Numbers only here, please. The scale is %.

CN(C)S(=O)(=O)N1C[C@H](Oc2cccnc2)[C@H]2OCCC[C@H]21	-1.28

// query Lab request: please report Percent Effect under test system Tyrosyl-tRNA synthetase, putative (Trypanosoma cruzi (strain CL Brener)) (UniProt Q4DSP6) for `O=C(NC[C@]12COC[C@H]1CN(Cc1nccs1)C2)N1CCCC1`
// result 5.13

// query Please state recorded Percent Effect (tested on Tyrosyl-tRNA synthetase, putative (Trypanosoma cruzi (strain CL Brener)) (UniProt Q4DSP6)) of CC1(NC(=O)Cc2csc(C(C)(C)C)n2)CCS(=O)(=O)C1 (stereo unspecified)
// result 17.5

// query Query Percent Effect on Tyrosyl-tRNA synthetase, putative (Trypanosoma cruzi (strain CL Brener)) (UniProt Q4DSP6) for N#Cc1ccc(F)c(CN2CCCC2Cn2cccn2)c1 (stereo unspecified)
// result 1.22

// query Form entry - test system: Tyrosyl-tRNA synthetase, putative (Trypanosoma cruzi (strain CL Brener)) (UniProt Q4DSP6); read-out: Percent Effect; compound: Cc1occc1C(=O)N1CCC2(CC1)NC(=O)CC2c1cnn(C)c1 (stereo unspecified)
// result 12.8

// query Under Tyrosyl-tRNA synthetase, putative (Trypanosoma cruzi (strain CL Brener)) (UniProt Q4DSP6): Percent Effect value of Cc1ccccc1-n1ncc(C(=O)N2CCCC2c2cnn(C)c2)c1C (stereo unspecified) ?
// result 18.3

---

biological target: Ubiquitin-activating enzyme e1, putative (Leishmania donovani (strain BPK282A1)) (UniProt E9BSI1); assay: Leishmania donovani Ubiquitin Activating Enzyme (LdE1); format: functional; design: scale not given: direction of the effect not stated beside the values; conditions: 30 µM
Sequence (E9BSI1 as listed by the source): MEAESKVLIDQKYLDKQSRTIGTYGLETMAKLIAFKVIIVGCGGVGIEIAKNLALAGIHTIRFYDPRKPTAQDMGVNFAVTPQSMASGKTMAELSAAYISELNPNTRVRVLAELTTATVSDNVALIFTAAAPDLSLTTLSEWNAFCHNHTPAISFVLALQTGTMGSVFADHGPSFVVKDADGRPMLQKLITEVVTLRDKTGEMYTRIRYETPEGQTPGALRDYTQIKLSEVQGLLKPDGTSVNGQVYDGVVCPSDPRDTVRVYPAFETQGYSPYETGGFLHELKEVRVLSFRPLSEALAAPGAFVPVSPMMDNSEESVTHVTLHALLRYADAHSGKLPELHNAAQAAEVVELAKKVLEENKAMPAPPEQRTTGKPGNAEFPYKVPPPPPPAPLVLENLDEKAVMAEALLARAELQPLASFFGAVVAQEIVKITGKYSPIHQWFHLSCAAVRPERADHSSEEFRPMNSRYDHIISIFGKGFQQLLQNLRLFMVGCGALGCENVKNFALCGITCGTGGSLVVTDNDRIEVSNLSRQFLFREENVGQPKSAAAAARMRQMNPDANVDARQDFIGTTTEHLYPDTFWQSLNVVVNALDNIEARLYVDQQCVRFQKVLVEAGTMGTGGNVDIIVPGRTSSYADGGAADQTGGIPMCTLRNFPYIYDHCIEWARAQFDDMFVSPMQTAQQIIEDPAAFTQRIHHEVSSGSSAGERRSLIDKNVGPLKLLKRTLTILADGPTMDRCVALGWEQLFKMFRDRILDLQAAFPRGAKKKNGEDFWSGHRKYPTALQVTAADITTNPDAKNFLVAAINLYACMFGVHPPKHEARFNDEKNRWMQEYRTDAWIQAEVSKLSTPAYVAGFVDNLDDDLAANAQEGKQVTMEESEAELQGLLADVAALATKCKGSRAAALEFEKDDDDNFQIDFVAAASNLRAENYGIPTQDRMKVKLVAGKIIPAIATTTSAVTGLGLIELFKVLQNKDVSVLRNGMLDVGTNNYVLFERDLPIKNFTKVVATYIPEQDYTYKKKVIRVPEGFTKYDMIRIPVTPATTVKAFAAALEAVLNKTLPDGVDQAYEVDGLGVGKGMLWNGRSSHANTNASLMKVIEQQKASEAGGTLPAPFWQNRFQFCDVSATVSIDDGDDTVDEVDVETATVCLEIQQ
Results with a measured potency or affinity are listed apart.
measured_parameter: Percent Effect

Please review the entries below; each comes with its answer.
COCCN(Cc1ccc(F)cc1Cl)C(=O)c1ccncc1	-1.39%
CC(CNc1cncc(-n2cccn2)n1)N(C)c1ccccc1 (stereo unspecified)	0%
CC(C)(C)c1ccc(C2(C(=O)NCCS(N)(=O)=O)CC2)cc1	10.4%
CCn1cnnc1C1CCN(C(=O)c2ccc(C(=O)OC)s2)CC1	10.4%
CN(CC1(O)CCCN(c2ccccn2)C1)C(=O)Cc1ccsc1 (stereo unspecified)	4.05%
COc1cccc(OCc2cc(C(=O)NC[C@H]3CCCN3)n[nH]2)c1	15.3%
CC1CN(C(=O)c2ccn(-c3cccc(Cl)c3)n2)CCO1 (stereo unspecified)	20.8%
COc1cc(N2C[C@@H]3COC[C@]3(COCc3cccc(C)n3)C2)ncn1	2.7%
O=C1NCCN1C1CCN(Cc2nc(-c3ccoc3)no2)CC1	5.2%
Cc1ccc(N2CCCC(NCC(=O)NC3CCOCC3)C2)nn1 (stereo unspecified)	-3.8%

// query Percent Effect for `O=C(c1cscn1)N1CCC[C@]2(C[C@H](OCC3CC3)CO2)C1` ?
// result -2.67%

---

The reader will find reported Percent Effect values listed item by item below.
molecular target: Tyrosyl-tRNA synthetase, putative (Trypanosoma cruzi (strain CL Brener)); assay: Trypanosoma cruzi tyrosyl tRNA synthetase (TcYRS) SOP; type: functional; parameters: scale not given: direction of the effect not stated beside the values; settings: 30 µM
Your answer should be a plain number; it is taken to be in %.

O=C(Nc1ccc(F)cc1)N1C[C@H]2C[C@H](C(=O)N3CCOCC3)[C@@H](C1)O2	14.1
COc1ccc(CNCc2ccnc(N3CCOCC3)c2)c(OC)c1	6.17

// query Requested read-out: Percent Effect. Entry: CCc1ccc(C(=O)N2CCN(CC(C)O)CC2)o1 (centres undefined)
// result 19.5

// query What does the data say about its Percent Effect? Entry: Cc1nc(C2CCCN(C(=O)c3cc(Cl)c[nH]3)C2)no1 (centres undefined)
// result 13.9
